Experiment: Solubility (24 hrs equilibration at RT, HPLC-UV)
Type: physicochemical
Details: biorelevant, thermodynamic from solid; Simulated Intestinal Fluid pH 7.5 (USP), target concentration 5 mg/ml, 24 hrs at RT; read-out: Solubility SIF
Protocol: Representative Compounds of the Disclosure were tested for solubity (Table 4) as follows: 0.1 M Phosphate Buffer Ionic Strength ˜0.15M Simulated Intestinal Fluid pH 7.5 (USP) Weigh ˜2 mgs of compound into clean glass 1 dram vails. Add ˜[…] of appropriate media to vial to yield a target concentration of 5 mg/ml. Place vials on a rotating shaker and equilibrate for 24 hrs. at RT. Remove supernatant to microcentrifuge tubes and centrifuge at 1300 rpm for 30 minutes. […]
Decide using solubility at 24 h: a value greater than or equal to 60 µg/mL is TRUE, a smaller one is FALSE.

> print(dat)
                                     smiles  group
1  COc1cccc(C(=O)NN(C(=O)c2ccc3c(c2)B(O)OC3)C(C)(C)C)c1C   TRUE
2  Cc1cc(C)cc(C(=O)N(NC(=O)c2ccc3c(c2)N=COB3O)C(C)(C)C)c1   TRUE
3  CNCc1ccc(C(=O)NN(C(=O)c2cc(C)cc(C)c2)C(C)(C)C)cc1B(O)O   TRUE

Request: // inclusive: solubility at 24 h at least 60 µg/mL? input: Cc1cc(C)cc(C(=O)N(NC(=O)c2ccc3c(c2)B(O)NC3)C(C)(C)C)c1
Response: TRUE

Request: // inclusive: solubility at 24 h at least 60 µg/mL? input: COc1cccc(C(=O)NN(C(=O)c2ccc3c(c2)NC(=O)N(c2ccccc2)B3O)C(C)(C)C)c1C
Response: TRUE

# credit: patent US9944659B2
